Here the recorded z-score is given for each entry.
test: FRG1 promoter luciferase signal modulators, primary screen, FRG1 inhibition for FSHD, cell-based, C2C12 myotubes, firefly/Renilla luciferase, luminescence (AID 1084); details: higher = more signal, called active from +8 up or from −8 down
Hey, just send me the number, nothing else.

Record excerpt, results attached:
CC(C)C[C@@H]1NC(=O)[C@@H]2C[C@H](C(=O)NCCCCCNC(=O)CS)[C@H](c3ccc(O)cc3)N2C1=O
2.98
COCCOC(=O)N1C(=O)[C@@]2(c3cc(C#CC4(O)CCCCCC4)ccc31)[C@H](C(N)=O)[C@H]1C(=O)O[C@H](c3ccccc3)[C@H](c3ccccc3)N1[C@@H]2c1ccc(OCCO)cc1
1.1
CCCCN1CC=CC23O[C@@H]4/C=C\CCCOC(=O)C4[C@H]2C(=O)N(CCCCCCO)[C@@H]3C1=O (stereo not given in full)
-1.38
CCCCC(=C=CC[C@@H](O)c1ccc(OCCO)cc1)CCO
-0.58

Documented z-score of `COc1cccc(C)c1NC(=O)O[C@H]1[C@H](OC(=O)Nc2ccc3c(c2)OCO3)[C@H](OC(=O)Nc2ccc3c(c2)OCO3)[C@@H](OC)O[C@@H]1CO` : 3.61

compound `COC(=O)[C@]1(Cc2ccccc2CN=[N+]=[N-])N=C(c2ccc(OCCCO)cc2)O[C@@H]1c1ccccc1N=[N+]=[N-]` , z-score observed: 3.39

Looking up `CO[C@H]1O[C@H](CO)[C@@H](OC(=O)Nc2cccc(F)c2)[C@H](OC(=O)c2cc3ccccc3[nH]2)[C@H]1OC(=O)c1cc2ccccc2[nH]1` , I found its z-score recorded as -1.46

The compound listed as `[N-]=[N+]=NCc1ccccc1C[C@@]1(C(=O)NCCN2CCOCC2)N=C(c2ccc(OCCCO)cc2)O[C@@H]1c1ccccc1` has a reported z-score of -3.05

Measured z-score of `COCCCNC(=O)[C@]1(Cc2ccccc2CN=[N+]=[N-])N=C(c2ccc(OCCCO)cc2)O[C@@H]1c1ccccc1N=[N+]=[N-]` : -0.881

For CCCCCN1CC=CC23O[C@@H]4/C=C\CCCOC(=O)C4[C@H]2C(=O)N(CCCCCO)[C@@H]3C1=O (stereo not given in full) the compound record lists z-score as -0.225

Note to self: z-score recorded for `CC(C)(C)OC(=O)CC[C@@]1(C(=O)N2CCOCC2)N=C(c2ccc(OCCCO)cc2)O[C@@H]1c1ccccc1CN=[N+]=[N-]` was 3.86

The recorded z-score for `C=CCNC(=O)[C@@H]1[C@H]2C(=O)O[C@H](c3ccccc3)[C@H](c3ccccc3)N2[C@H](c2ccc(O)cc2)[C@@]12C(=O)N(C(=O)OCCOC)c1ccc(C#CCC(C(=O)OC)C(=O)OC)cc12` is -0.614

So, `[N-]=[N+]=NCc1ccccc1[C@H]1OC(c2ccc(OCCCO)cc2)=N[C@@]1(Cc1ccccc1N=[N+]=[N-])C(=O)O` ? Its z-score was 4.15

According to the records, this compound `O=C1OC[C@@H](c2ccccc2)n2cc(/C=C/c3ccccc3)cc21` displays z-score of -0.144

# z-score of `CC(C)(C)OC(=O)CC[C@]1(C(=O)N2CCOCC2)COC(c2ccc(OCCCO)cc2)=N1` = -0.462
